Exercise: state measured activity coefficient for each of the compounds provided.
test: activity coefficient (dimensionless); of the first substance listed, at infinite dilution; xn = mol fraction of the nth substance listed; settings: 348.15 K; 101 kPa; Liquid; Chromatography; x1 = 0
Write the value as a bare number.

// query Please indicate activity coefficient recorded for C1CCCCCCC1 [cyclooctane] + CCCC[N+]1(C)CCCC1.N#C[B-](C#N)(C#N)C#N
// result 11.2

// query Please indicate activity coefficient recorded for C=CCCCC [hex-1-ene] + CCCC[N+]1(C)CCCC1.N#C[B-](C#N)(C#N)C#N
// result 7.03

// query Please indicate activity coefficient recorded for CCCCCCCC [octane] + CCCC[N+]1(C)CCCC1.N#C[B-](C#N)(C#N)C#N
// result 26.2

// query Please indicate activity coefficient recorded for C1CCCCC1 [cyclohexane] + CCCC[N+]1(C)CCCC1.N#C[B-](C#N)(C#N)C#N
// result 7.23

// query Please indicate activity coefficient recorded for CCO [ethanol] + CCCC[N+]1(C)CCCC1.N#C[B-](C#N)(C#N)C#N
// result 1.02

// query Please indicate activity coefficient recorded for Cc1cccc(C)c1 [1,3-dimethylbenzene] + CCCC[N+]1(C)CCCC1.N#C[B-](C#N)(C#N)C#N
// result 1.62

// query Please indicate activity coefficient recorded for CCCOCCC [dipropyl ether] + CCCC[N+]1(C)CCCC1.N#C[B-](C#N)(C#N)C#N
// result 5.42

// query Please indicate activity coefficient recorded for CCc1ccccc1 [ethylbenzene] + CCCC[N+]1(C)CCCC1.N#C[B-](C#N)(C#N)C#N
// result 1.64
